Entry source: patent US20240417410A1

Reported IC50 by item:
target: KRAS G12C-BRAF complex (Homo sapiens (Human), UniProt P01116+P62937, G12C); experiment: KRAS-BRAF with CYPA (500 nM) interaction assay (TR-FRET, Example 136); conditions: KRAS G12C-BRAF disruption
Sequence (P01116-2 other isoform, or with tags, fused parts or gaps G12C): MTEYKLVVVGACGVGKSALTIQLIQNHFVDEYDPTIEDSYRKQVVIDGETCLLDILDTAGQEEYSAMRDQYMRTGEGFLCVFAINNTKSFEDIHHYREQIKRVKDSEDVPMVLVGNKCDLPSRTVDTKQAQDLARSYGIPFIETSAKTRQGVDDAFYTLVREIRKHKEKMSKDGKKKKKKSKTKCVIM
Sequence (P62937 whole entry): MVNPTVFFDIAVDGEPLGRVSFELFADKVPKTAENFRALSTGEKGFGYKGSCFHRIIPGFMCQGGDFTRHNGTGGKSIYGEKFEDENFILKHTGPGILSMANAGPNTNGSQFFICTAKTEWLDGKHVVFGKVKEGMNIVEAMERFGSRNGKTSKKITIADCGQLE
// return numeric value only (unit: nM, not printed)

Would you mind telling me what IC50 value was observed for CO[C@@H](C)c1ncc(N2CCOCC2)cc1-c1c2c3cc(cc4c3n1CCC4)-c1csc(n1)C[C@H](NC(=O)[C@H]1C[C@@H]1c1cncnc1)C(=O)N1CCC[C@H](N1)C(=O)OCC(C)(C)C2 (atropisomer, axis not shown; (M)) [Example 94] ?
6.9

Would you mind telling me what IC50 value was observed for CO[C@@H](C)c1ncc(N2CCN(C)CC2)cc1-c1c2c3cc(c(F)c4c3n1CCC4)-c1csc(n1)C[C@H](NC(=O)[C@H]1[C@H](C)[C@@H]1C)C(=O)N1CCC[C@H](N1)C(=O)OCC(C)(C)C2 (atropisomer, axis not shown; (M)) [Example 124] ?
16.2

Would you mind telling me what IC50 value was observed for CO[C@@H](C)c1ncc(N2CCN(C)CC2)cc1-c1c2c3cc(cc4c3n1CCC4)-c1csc(n1)C[C@H](NC(=O)[C@@H]1C[C@H]1c1cncnc1C)C(=O)N1CCC[C@H](N1)C(=O)OCC(C)(C)C2 (atropisomer, axis not shown; (M)) [Example 112] ?
10.4

Would you mind telling me what IC50 value was observed for CO[C@@H](C)c1ncc(N2CCN(C)CC2)cc1-c1c2c3cc(cc4c3n1CC(F)(F)C4)-c1csc(n1)C[C@H](NC(=O)[C@H]1C[C@@H]1c1cncnc1)C(=O)N1CCC[C@H](N1)C(=O)OCC(C)(C)C2 (atropisomer, axis not shown; (M)) [Example 95] ?
13.7

Would you mind telling me what IC50 value was observed for CCN1CCN(c2cnc([C@H](C)OC)c(-c3c4c5cc(cc6c5n3CCC6)-c3csc(n3)C[C@H](NC(=O)[C@H]3[C@H](C)[C@@H]3C)C(=O)N3CCC[C@H](N3)C(=O)OCC(C)(C)C4)c2)CC1 (atropisomer, axis not shown; (M)) [Example 113] ?
4.3

Would you mind telling me what IC50 value was observed for CO[C@@H](C)c1ncc(N2CCN(C)CC2)cc1-c1c2c3cc(cc4c3n1CCC4)-c1csc(n1)C[C@H](NC(=O)C13CC(CO1)C3)C(=O)N1CCC[C@H](N1)C(=O)OCC(C)(C)C2 [Example 66] ?
50.5
